biological target: C52Hk S. African variant (Acro) spike protein (SARS-CoV-2, UniProt P0DTC2 16-1213); assay: SPR (Carterra LSA); […]; 1:1 model; […]
Threshold-based label: Kd under 5 nM gives MET, Kd not under 5 nM gives NOT MET.

Illustrative cases are given below, each with its answer.
{"Binder": "Antibody 1-8 (Fc fusion) EVQLVESGGGLVQPGGSLRLSCAASGRTLSRYTMGWFRQAPGKEREFVASITSGGTTNYADSVKGRFTISADNSKNTAYLQMNSLKPEDTAVYYCAKEDVGKPFDWGQGTLVTVSS", "Classification": "MET"}
{"Binder": "Antibody 1-7 (Fc fusion) EVQLVESGGGLVQPGGSLRLSCAASGGTFSSIGMGWFRQAPGKEREFVAAISWDGGATAYADSVKGRFTISADNSKNTVYLQMNSLKPEDTAVYYCAKEDVGKPFDWGQGTLVTVSS", "Classification": "MET"}
{"Binder": "Antibody 1-1 (Fc fusion) EVQLVESGGGLVQPGGSLRLSCAASGSIGSINAMGWFRQAPGKEREWVAGISNGGTTNYADSVKGRFTISADNSKNTAYLQMNSLKPEDTAVYYCAADGVPEYSDYASGPVWGQGTLVTVSS", "Classification": "MET"}

Given Antibody 1-10 (Fc fusion) EVQLVESGGGLVQPGSSLRLSCAASGGTFSSIGMGWFRQAPGKEREFVAAISWDGGATAYADSVKGRFTISADNSKNTAYLQMNSLKPEDTAVYYCAKEDVGKPFDWGQGTLVTVSS , is recorded Kd strictly lower than 5 nM?
NOT MET

In the record for Antibody 1-15 (Fc fusion) EVQLVESGGGLVQPGGSLRLSCAASGGIFSDMFMGWFRQAPGKEREFVATIDWSGDTAFYADSVKGRFTISADNSKNTAYLQMNSLKPEDTAVYYCAVDLSGDAVYDWGQGTLVTVSS , is Kd less than 5 nM?
MET
